# systemUnderTest: human orexin type 2 receptor (Homo sapiens, UniProt O43614)
# Construct: expressed in transfected cells
# Sequence (O43614 whole entry): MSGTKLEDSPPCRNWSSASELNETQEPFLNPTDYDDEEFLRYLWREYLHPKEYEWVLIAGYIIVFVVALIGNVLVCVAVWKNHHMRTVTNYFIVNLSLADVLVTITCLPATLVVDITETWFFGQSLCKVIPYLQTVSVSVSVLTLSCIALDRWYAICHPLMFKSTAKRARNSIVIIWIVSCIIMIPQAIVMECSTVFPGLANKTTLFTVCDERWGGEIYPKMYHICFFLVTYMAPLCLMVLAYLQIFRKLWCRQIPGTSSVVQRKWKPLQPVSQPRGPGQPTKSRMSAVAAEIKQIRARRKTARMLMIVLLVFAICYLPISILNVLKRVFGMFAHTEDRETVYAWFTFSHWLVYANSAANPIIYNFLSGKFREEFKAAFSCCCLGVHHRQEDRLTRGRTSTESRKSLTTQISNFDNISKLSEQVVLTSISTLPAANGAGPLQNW
# methodSummary: Measurement of orexin type 2 receptor agonist activity (calcium indicator fluorescence, CHO cells forcibly expressing human OX2 receptor)
# Format: cell-based
# condition: compound at 3 μM; 0% = DMSO, 100% = orexin A (human) 10 nM
metricName: OX2R agonist activity (3 μM, %)

compound: CCS(=O)(=O)N[C@@H]1[C@H](Cc2cccc(-c3cccc(C(F)F)c3)c2F)N(C(=O)C23CC(C2)C3)CC1(F)F [Example 509]
OX2R agonist activity (3 μM, %): 85%
--
compound: CCS(=O)(=O)N[C@@H]1[C@H](Cc2cccc(-c3cccc(F)c3F)c2F)N(C(=O)C2CC(F)C2)CC1(F)F (stereo partly shown) [Example 349]
OX2R agonist activity (3 μM, %): 98%
--
compound: CS(=O)(=O)N[C@H]1[C@@H](F)CN(C(=O)C23CC(C2)C3)[C@H]1Cc1cccc(-c2cccc(F)c2)c1F [Example 231]
OX2R agonist activity (3 μM, %): 95%
--
compound: CCS(=O)(=O)N[C@@H]1[C@H](Cc2cccc(-c3cc(C)cc(F)c3)c2F)N(C(=O)N2CCC2)CC1(F)F [Example 444]
OX2R agonist activity (3 μM, %): 98%
--
compound: CCS(=O)(=O)N[C@@H]1[C@H](Cc2cccc(-c3cccc(OC(F)F)c3)c2F)N(C(=O)C23CC(C2)C3)CC1(F)F [Example 551]
OX2R agonist activity (3 μM, %): 93%

Recorded OX2R agonist activity (3 μM, %) of CCS(=O)(=O)N[C@@H]1[C@H](Cc2cccc(-c3ccc(F)c(C)c3)c2F)N(C(=O)C(C)(C)O)CC1(F)F [Example 466] , please.
103%

GET /values?readout=OX2R agonist activity (3 μM, %)&item= CCS(=O)(=O)N[C@@H]1[C@H](Cc2cccc(-c3cccc(F)c3)c2F)N(C(=O)C(C)C)CC1(F)F [Example 94]
99%
